Conditions used: mouse; liver_microsomes
Result type: microsomal CLint (µL/min/mg)
Response body: numeric value in µL/min/mg, unit text excluded.

See these solved cases before continuing.
- Compound: "CC(C)[C@H](Nc1ncnc2[nH]c(-c3cnn(CC(N)=O)c3)cc12)c1ccc2c(c1)NC(=O)CO2 (racemic)"
  Result type: "microsomal CLint"
  Data value: 11
- Compound: "CC(C)[C@@H](Nc1ncnc2[nH]c(-c3cnn(C)c3C#N)cc12)c1ccc2c(c1)OCCO2"
  Result type: "microsomal CLint"
  Data value: 129
- Compound: "CN(c1ccc2c(c1)CNC2)[C@H](C(=O)NCC(F)F)c1cc(Cl)cc(C2CC2)c1 (racemic)"
  Result type: "microsomal CLint"
  Data value: 10.6
- Compound: "CNC(=O)c1cc(Cl)c(F)cc1NS(=O)(=O)c1ccc(Oc2ccccc2Cl)cc1"
  Result type: "microsomal CLint"
  Data value: 45.6
- Compound: "Cn1ncc(-c2cc3c(N[C@H](c4ccc5c(c4)OCCO5)C(C)(C)C)ncnc3[nH]2)c1C#N (racemic)"
  Result type: "microsomal CLint"
  Data value: 199

# microsomal CLint of O=C(Nc1cccc2c(C(=O)N[C@H]3c4ccccc4C[C@H]3C(=O)O)c[nH]c12)NC1CC1 (racemic) = 4

# microsomal CLint of CNC(=O)c1cc2c(N[C@H](c3ccc4c(c3)OCCO4)C(C)C)ncnc2[nH]1 (racemic) = 55

# microsomal CLint of Cc1cc(CCCOc2c(C)cc(-c3noc(C(F)(F)F)n3)cc2C)on1 = 21.5

# microsomal CLint of O=C(/C=C/c1ccccc1)C(=O)N1CCN(CCc2ccccc2)CC1 = 181

# microsomal CLint of CNC(=O)c1cc2c(N[C@H](c3ccc4c(c3)S(=O)(=O)CCC4)C(C)C)ncnc2[nH]1 (racemic) = 46

# microsomal CLint of O=C(Nc1ccc2c(c1)CNC2)c1cc(F)cc(-c2cn[nH]c2)c1 = 553

# microsomal CLint of CC(C)[C@H](Nc1ncnc2[nH]c(-c3ccc4nnn(C)c4c3)cc12)c1ccc2c(c1)S(=O)(=O)CCC2 (racemic) = 219

# microsomal CLint of CNC(=O)c1c[nH]c2ncnc(N[C@H](c3ccc4c(c3)S(=O)(=O)CCC4)C(C)C)c12 (racemic) = 192

----------
Result type: logD
Write the value as a bare number.

See these solved cases before continuing.
- Molecule: "CCNC(=O)c1cc2c(N[C@H](c3ccc4c(c3)OCCO4)C(C)C)ncnc2[nH]1 (single isomer, unassigned)"
  logD: 3.6
- Molecule: "CNCc1cc(-c2cc3c(N[C@H](c4ccc5c(c4)S(=O)(=O)NCC5)C(C)C)ncnc3[nH]2)co1 (racemic)"
  logD: 1.9
- Molecule: "O=C(NCCCF)[C@H](Nc1ccc2c(c1)CNC2)c1cc(Cl)cc(C2CC2)c1 (racemic)"
  logD: 1.2
- Molecule: "CC(C)NC(=O)[C@H](Nc1ccc2c(c1)CNC2)c1cc(Cl)cc2[nH]ncc12 (racemic)"
  logD: 0.5
- Molecule: "CN(c1ccc2c(c1)CNC2)[C@H](C(=O)NCC(F)F)c1cc(Cl)cc(C2CC2)c1 (racemic)"
  logD: 1.6
- Molecule: "O=C(O)c1cc(Cl)ccc1NS(=O)(=O)c1ccc(-c2ccccc2Cl)cc1"
  logD: 3.6
- Molecule: "CC(C)[C@H](Nc1ncnc2[nH]ccc12)c1ccc2c(c1)S(=O)(=O)CCC2 (racemic)"
  logD: 2.5
- Molecule: "COc1ccc([C@H](Cc2nnn[nH]2)NC(=O)c2ncnc3[nH]ccc23)cc1 (single isomer, unassigned)"
  logD: -0.5

# logD of CC(C)[C@H](CO)Nc1ncnc2[nH]ccc12 = 1.69

# logD of COCCNC(=O)[C@H](Nc1ccc2c(c1)CNC2)c1cc(Cl)cc(C2CC2)c1 (single isomer, unassigned) = 1

# logD of C=CC[C@H](Nc1ccc(-c2nn[nH]n2)cc1)c1cc(Cl)cc(NC(=O)OCc2ccccc2)c1 (racemic) = 3.9

----------
Conditions used: mdck_mdr1
Class field: derived from Papp; ranges lower (below 1 ×10⁻⁶ cm/s), middle (1 ×10⁻⁶ cm/s to below 2 ×10⁻⁶ cm/s), upper (2 ×10⁻⁶ cm/s or more)

The following compounds have reported results that may help.
- Compound: "CC(C)[C@H](Nc1ncnc2[nH]c(-c3cnn(CC(N)=O)c3)cc12)c1ccc2c(c1)NC(=O)CO2 (racemic)"
  Classification: "middle"
- Compound: "CCNC(=O)c1cc2c(N[C@H](c3ccc4c(c3)S(=O)(=O)CCO4)C(C)C)ncnc2[nH]1 (racemic)"
  Classification: "lower"
- Compound: "CC[C@H](Cc1nnn[nH]1)c1ccc(NC(=O)c2cc(Cl)cc(NC(=O)OCc3ccccc3)c2)cc1 (racemic)"
  Classification: "upper"
- Compound: "Cc1cc(OCc2ccccc2)ccc1NS(=O)(=O)c1ccc(Cl)cc1C(=O)O"
  Classification: "upper"
- Compound: "CCNC(=O)c1cc2c(N[C@H](c3ccc4c(c3)OCCO4)C(C)C)ncnc2[nH]1 (racemic)"
  Classification: "upper"

Turning now to a further compound:
Inquiry: Field: class (Papp) — entry: CC(C)[C@H](Nc1ncnc2[nH]c(-c3ccc4nnn(C)c4c3)cc12)c1ccc2c(c1)S(=O)(=O)CCC2 (racemic)
Reply text: lower

----------
Conditions used: human; liver_microsomes
API: label(entry) gives 1 (yes) if the entry's microsomal CLint is strictly smaller than 80 µL/min/mg; on equality or larger values it gives 0 (no).

The following compounds have reported results that may help.
- Compound: "C=CC[C@H](Nc1ccc(-c2nn[nH]n2)cc1)c1cc(Cl)cc(NC(=O)OCc2ccccc2)c1 (racemic)"
  Classification: "1 (yes)"
- Compound: "CNC(=O)c1c[nH]c2ncnc(N[C@H](c3ccc4c(c3)NC(=O)CO4)C(C)C)c12 (racemic)"
  Classification: "0 (no)"
- Compound: "NCc1cccc(CNC(=O)[C@H](NC(=O)OCc2ccccc2)c2ccc(OCc3ccccc3)cc2)c1 (racemic)"
  Classification: "1 (yes)"
- Compound: "CNC(=O)Cn1cc(-c2cc3c(N[C@H](c4ccc5c(c4)OCCO5)C(C)C)ncnc3[nH]2)cn1 (racemic)"
  Classification: "0 (no)"

Inquiry: Find out if reported microsomal CLint for NCc1cccc(NC(=O)c2cc(OCc3ccccc3)ccc2CNC(=O)OCc2ccccc2)c1 is less than 80 µL/min/mg
Reply text: 1 (yes)

----------
Result type: logD

See these solved cases before continuing.
- Molecule: "O=C(Nc1cc2c(cc1C1CC1)CNC2)c1cc(F)cc2[nH]ncc12"
  logD: 0.7
- Molecule: "CC(C)[C@H](Nc1ncnc2[nH]c(-c3cnn(C)c3)cc12)c1ccc2c(c1)S(=O)(=O)CCC2 (racemic)"
  logD: 3.3

# logD of Cn1c(=O)[nH]c2c(C(=O)Nc3ccc4c(c3)CNC4)cc(Br)cc21 = 0.5

----------
Reported Papp is given for each of the following compounds.
Conditions used: mdck_mdr1
Response body: numeric value in ×10⁻⁶ cm/s, unit text excluded.

- Molecular string: "O=C(Nc1cc2c(cc1C1CC1)CNC2)c1cc(F)cc2[nH]ncc12"
  Papp / ×10⁻⁶ cm/s: 3.41

# Papp of O=C(Nc1ccc2c(c1)CNC2)c1cc(F)cc2[nH]c(-c3ccc(F)cc3)nc12 = 0.1

# Papp of COc1cc(-c2cc(NC(=O)c3cc(F)cc4[nH]ncc34)cc3c2CNC3)ccn1 = 0.788

# Papp of CO[C@H]1C[C@H](n2ncc3c(C(=O)Nc4ccc5c(c4)CNC5)cc(Cl)cc32)C1 = 1.6

# Papp of NCc1cccc(NC(=O)c2cccn3cc(CN4CCCC4)nc23)c1 = 5.25

----------
Conditions used: mdck_mdr1
Reported Papp is given for each of the following compounds.
Response body: numeric value in ×10⁻⁶ cm/s, unit text excluded.

See these solved cases before continuing.
- Compound: "COc1ccc([C@H](Cc2nnn[nH]2)NC(=O)c2ncnc3[nH]ccc23)cc1 (single isomer, unassigned)"
  Unit symbol: "×10⁻⁶ cm/s"
  Papp: 1.07
- Compound: "CC(C)[C@H](Nc1ncnc2[nH]cc(C(N)=O)c12)c1ccc2c(c1)OCCO2 (racemic)"
  Unit symbol: "×10⁻⁶ cm/s"
  Papp: 11.1
- Compound: "N#C[C@H](Nc1cccc(-c2nn[nH]n2)c1)c1cc(Cl)cc(NC(=O)OCc2ccccc2)c1 (racemic)"
  Unit symbol: "×10⁻⁶ cm/s"
  Papp: 3.23

# Papp of CC(C)[C@H](Nc1ncnc2[nH]c(-c3cnn(CC(=O)N(C)C)c3)cc12)c1ccc2c(c1)S(=O)(=O)CCC2 (racemic) = 0.67

# Papp of Clc1ccc2[nH]cc(Cc3ccc(-c4nn[nH]n4)cc3)c2c1 = 8.4

----------
Conditions used: human; liver_microsomes
Reported microsomal CLint is given for each of the following molecules.
Response body: numeric value in µL/min/mg, unit text excluded.

- Molecule: "O=C(NCC(F)(F)F)c1cc(Cl)c(F)cc1NS(=O)(=O)c1ccc(Oc2ccccc2Cl)cc1"
  Unit symbol: "µL/min/mg"
  Data value: 70
- Molecule: "CNC(=O)Cn1cc(-c2cc3c(N[C@H](c4ccc5c(c4)S(=O)(=O)CCC5)C(C)C)ncnc3[nH]2)cn1 (racemic)"
  Unit symbol: "µL/min/mg"
  Data value: 94
- Molecule: "Cc1cc(CCCOc2c(C)cc(-c3noc(C(F)(F)F)n3)cc2C)on1"
  Unit symbol: "µL/min/mg"
  Data value: 11.6
- Molecule: "CC(C)[C@H](Nc1ncnc2[nH]c(-c3cnn(CC(=O)N(C)C)c3)cc12)c1ccc2c(c1)OCCO2 (racemic)"
  Unit symbol: "µL/min/mg"
  Data value: 142
- Molecule: "CNC(=O)c1cc2c(N[C@H](c3ccc4c(c3)NC(=O)CO4)C(C)C)ncnc2[nH]1 (single isomer, unassigned)"
  Unit symbol: "µL/min/mg"
  Data value: 175
- Molecule: "O=C(Nc1cccc2c(C(=O)N[C@H]3c4ccccc4C[C@H]3C(=O)O)c[nH]c12)NC1CC1 (racemic)"
  Unit symbol: "µL/min/mg"
  Data value: 6
- Molecule: "CCNC(=O)c1cc2c(N[C@H](c3ccc4c(c3)S(=O)(=O)NCC4)C(C)C)ncnc2[nH]1 (racemic)"
  Unit symbol: "µL/min/mg"
  Data value: 85
- Molecule: "CC(C)[C@H](CO)Nc1ncnc2[nH]ccc12"
  Unit symbol: "µL/min/mg"
  Data value: 6

# microsomal CLint of CC(C)[C@H](Nc1ncnc(N)c1Cl)c1ccc2c(c1)S(=O)(=O)CCC2 (racemic) = 79

# microsomal CLint of O=C(Nc1ccc2c(c1)CNC2)c1cc(F)cc(-c2cn[nH]c2)c1 = 36.3

# microsomal CLint of COCCNC(=O)c1c[nH]c2ncnc(N[C@H](c3ccc4c(c3)S(=O)(=O)CCC4)C(C)C)c12 (racemic) = 540

# microsomal CLint of CC(C)[C@H](Nc1ncnc2[nH]c(-c3ccc4nnn(C)c4c3)cc12)c1ccc2c(c1)S(=O)(=O)CCC2 (racemic) = 752
